Reference source for all entries: PubChem BioAssay AID2060491

- Tested on: 857933-349-R-J2-PDC complex spheroids, viability
- assay-explanation: Anticancer human tumor 857933-349-R-J2-PDC patient-derived colon adenocarcinoma cell line growth inhibition [GQUAD]; active means viability on the fitted dose curve at most 10% of control; inactive means the rest
- protocol-conditions: second compound 1 µM; first compound 1 µM
Choose one outcome from this list and give only that: YES = active, NO = inactive

Some entries whose results are on file:
• COc1cc(C2c3cc4c(cc3C(OC3OC5COC(C)OC5C(O)C3O)C3COC(=O)C23)OCO4)cc(OC)c1O (stereo unspecified) + CN(C)c1ccc(Nc2c3ccc(NC(=O)CCN4CCCC4)cc3nc3cc(NC(=O)CCN4CCCC4)ccc23)cc1 = NO
• O=c1[nH]cc(F)c(=O)[nH]1 + Cc1[nH]c2ccc(F)cc2c1-c1nc2c3cccnc3c3ncccc3c2[nH]1 = NO
• CC1COCCN1c1cc(-c2ccnn2C)c2ccnc(-c3ccn[nH]3)c2n1 (stereo unspecified) + CN(C)c1ccc(Nc2c3ccc(NC(=O)CCN4CCCC4)cc3nc3cc(NC(=O)CCN4CCCC4)ccc23)cc1 = NO

Exercise: Please share the test call associated with O=C(c1cc(Cc2n[nH]c(=O)c3ccccc23)ccc1F)N1CCN(C(=O)C2CC2)CC1 + Cc1cnc(CNC(=O)c2c(=O)c3ccc(N4CCCN(C)CC4)nc3n3c2sc2ccccc23)cn1 .
Key: YES

Exercise: Please share the test call associated with C#Cc1c(F)ccc2cc(O)cc(-c3ncc4c(N5CC6CCC(C5)N6)nc(OCC56CCCN5CC(F)C6)nc4c3F)c12 (stereo unspecified) + CN(C)c1ccc(Nc2c3ccc(NC(=O)CCN4CCCC4)cc3nc3cc(NC(=O)CCN4CCCC4)ccc23)cc1 .
Key: NO

Exercise: Please share the test call associated with O=C(NO)c1cnc(N2CCN(S(=O)(=O)c3ccc4ccccc4c3)CC2)nc1 + CN(C)c1ccc(Nc2c3ccc(NC(=O)CCN4CCCC4)cc3nc3cc(NC(=O)CCN4CCCC4)ccc23)cc1 .
Key: NO

====

- Test system: 857933-349-R-J2-PDC complex spheroids, viability
- assay-explanation: Anticancer human tumor 857933-349-R-J2-PDC cell line growth inhibition [GQUAD];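 further: spheroids exposed to compounds for one week before readout; percent viability relative to vehicle DMSO wells taken as 100%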
- protocol-conditions: second compound 1 µM; first compound 10 µM; hits give low values
property: viability, T/C

Before answering, review these 3 worked examples.
* O=C(NO)c1cnc(N2CCN(S(=O)(=O)c3ccc4ccccc4c3)CC2)nc1 + CN(C)c1ccc(Nc2c3ccc(NC(=O)CCN4CCCC4)cc3nc3cc(NC(=O)CCN4CCCC4)ccc23)cc1 | 0.36%
* Cc1cccc(N(C)C(=O)C2C(O)CCN2c2nc(C)cc(C(F)(F)F)c2C#N)c1 (stereo not given) + Cc1[nH]c2ccc(F)cc2c1-c1nc2c3cccnc3c3ncccc3c2[nH]1 | 94.7%
* O=c1[nH]cc(F)c(=O)[nH]1 + Cc1cnc(CNC(=O)c2c(=O)c3ccc(N4CCCN(C)CC4)nc3n3c2sc2ccccc23)cn1 | 3.5%

Lab book: viability, T/C of CC(=O)O[C@H]1C(=O)[C@@]2(C)[C@H]([C@H](OC(=O)c3ccccc3)[C@]3(O)C[C@H](OC(=O)[C@H](O)[C@@H](NC(=O)c4ccccc4)c4ccccc4)C(C)=C1C3(C)C)[C@]1(OC(C)=O)CO[C@@H]1C[C@@H]2O + Cc1cnc(CNC(=O)c2c(=O)c3ccc(N4CCCN(C)CC4)nc3n3c2sc2ccccc23)cn1 noted as 3.57%

Lab book: viability, T/C of C#Cc1c(F)ccc2cc(O)cc(-c3ncc4c(N5CC6CCC(C5)N6)nc(OCC56CCCN5CC(F)C6)nc4c3F)c12 (stereo not given) + Cc1cnc(CNC(=O)c2c(=O)c3ccc(N4CCCN(C)CC4)nc3n3c2sc2ccccc23)cn1 noted as 1.95%
